Target: human ether-à-go-go-related gene (hERG) potassium channel (human)
Test: primary screen, population patch clamp on CHO cells stably expressing hERG; higher = less effect of the substance
About 14,000 (4.5%) of roughly 310,000 compounds showed an effect of 50% or more. Effects have a minus sign here. This excerpt belongs to a sample that is enriched for strong results.
MEASUREMENT_LABEL: hERG current change (%, negative = inhibition) at 10uM (%)

| STRUCTURE_SMILES_STRING | UNIT_INFO | NUMERIC_VALUE |
| --- | --- | --- |
| Cc1cnc(CN(C)Cc2c(C(=O)N3CCc4ccccc4C3)nc3ccc(Cl)cn23)[nH]1 | % | -62.6 |
| COC(=O)C1CCN(C(=O)COC(=O)c2n[nH]c3ccccc23)CC1 | % | 10.8 |
| CC1=CC(C)(C)Nc2ccc(OC(=O)CN3C(=O)c4ccccc4C3=O)cc21 | % | 15 |
| CN(Cc1cccnc1)Cc1c(C(=O)N2CCc3ccccc3C2)nc2ccc(Cl)cn12 | % | -20.1 |

###

Molecular target: human ether-à-go-go-related gene (hERG) potassium channel (human, UniProt Q12809);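 further: peak tail current of the secondary pulse compared with the same well before compound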
Sequence (Q12809 whole entry, looked up): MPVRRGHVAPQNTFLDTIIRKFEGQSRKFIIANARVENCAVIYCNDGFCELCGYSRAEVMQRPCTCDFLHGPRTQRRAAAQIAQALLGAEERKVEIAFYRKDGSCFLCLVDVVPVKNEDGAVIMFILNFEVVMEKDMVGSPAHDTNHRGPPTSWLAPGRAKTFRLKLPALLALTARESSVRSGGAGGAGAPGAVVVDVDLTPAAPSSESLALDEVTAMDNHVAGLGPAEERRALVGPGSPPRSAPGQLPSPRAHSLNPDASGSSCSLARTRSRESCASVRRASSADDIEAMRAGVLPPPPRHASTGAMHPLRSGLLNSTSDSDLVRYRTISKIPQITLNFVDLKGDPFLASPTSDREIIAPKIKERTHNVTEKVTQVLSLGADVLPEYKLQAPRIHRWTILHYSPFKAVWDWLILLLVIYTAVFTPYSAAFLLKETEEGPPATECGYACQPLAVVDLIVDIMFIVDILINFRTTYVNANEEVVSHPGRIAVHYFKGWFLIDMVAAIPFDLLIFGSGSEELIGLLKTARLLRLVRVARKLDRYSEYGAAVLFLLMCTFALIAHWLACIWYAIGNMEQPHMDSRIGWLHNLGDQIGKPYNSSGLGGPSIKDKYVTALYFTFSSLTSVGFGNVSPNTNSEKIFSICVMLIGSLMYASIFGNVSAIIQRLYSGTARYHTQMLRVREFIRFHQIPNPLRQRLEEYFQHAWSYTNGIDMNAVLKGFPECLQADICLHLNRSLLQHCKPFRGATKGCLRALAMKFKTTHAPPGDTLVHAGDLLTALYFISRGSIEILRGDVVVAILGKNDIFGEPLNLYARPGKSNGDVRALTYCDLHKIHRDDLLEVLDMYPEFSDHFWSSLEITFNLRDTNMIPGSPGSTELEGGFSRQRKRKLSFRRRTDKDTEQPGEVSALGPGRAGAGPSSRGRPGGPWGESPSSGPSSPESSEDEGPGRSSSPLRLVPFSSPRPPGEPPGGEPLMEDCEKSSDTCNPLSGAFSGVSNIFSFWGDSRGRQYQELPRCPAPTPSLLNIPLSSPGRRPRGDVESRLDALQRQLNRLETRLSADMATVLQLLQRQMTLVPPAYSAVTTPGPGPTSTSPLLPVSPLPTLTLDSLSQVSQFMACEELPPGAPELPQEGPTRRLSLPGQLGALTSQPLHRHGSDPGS
Test: primary screen, population patch clamp on CHO cells stably expressing hERG; higher = less effect of the substance
The campaign covered roughly 310,000 compounds. About 14,000 (4.5%) showed an effect of 50% or more. The effect is printed as a negative number. The sample holds strong results, similar compounds and a random draw of the others, so the mix is not that of the screen.
MEASUREMENT_LABEL: hERG current change (%, negative = inhibition) at 10uM (%)

| COMPOUND | SYSTEM_NAME | NUMERIC_VALUE |
| --- | --- | --- |
| CCCc1cc(=O)oc2cc(OCC(=O)N3CCC(C(N)=O)CC3)ccc12 | human ether-à-go-go-related gene (hERG) potassium channel (human, UniProt Q12809) | -6.67 |
| Cc1cc(=O)oc2cc(OCC(=O)N3CCN(C(=O)C4COc5ccccc5O4)CC3)c(Cl)cc12 (centres unmarked) | human ether-à-go-go-related gene (hERG) potassium channel (human, UniProt Q12809) | -48 |
| CCn1c(SCC(=O)Nc2ccc3c(c2)OCCO3)nnc1-c1ccncc1 | human ether-à-go-go-related gene (hERG) potassium channel (human, UniProt Q12809) | 0.979 |
| Cc1nn(C)c(Cl)c1CN1CCCC(CO)(Cc2ccccc2)C1 (centres unmarked) | human ether-à-go-go-related gene (hERG) potassium channel (human, UniProt Q12809) | -6.66 |
| O=C(O)CSc1cc(C(F)(F)F)nc(-c2ccccn2)n1 | human ether-à-go-go-related gene (hERG) potassium channel (human, UniProt Q12809) | 5.55 |

###

Biological target: human ether-à-go-go-related gene (hERG) potassium channel (human, UniProt Q12809);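 further: peak tail current of the secondary pulse compared with the same well before compound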
Assay: primary screen, population patch clamp on CHO cells stably expressing hERG; higher = less effect of the substance
The whole screen tested about 310,000 compounds, of which about 14,000 (4.5%) showed an effect of 50% or more. Effects have a minus sign here. Only a selection was taken, and strong results are over-represented in it overall.
Parameter hERG current change (%, negative = inhibition) at 10uM: see the listing below.
MEASUREMENT_LABEL: hERG current change (%, negative = inhibition) at 10uM (%)

| COMPOUND | NUMERIC_VALUE |
| --- | --- |
| CCCN1C2CCCC1CC(NC(=O)c1ccc(C(C)(C)C)cc1)C2 (centres unmarked) | -37.1 |
| CC(O)CC(C(=O)NNc1ccccc1)C(=O)NNc1ccccc1 (centres unmarked) | 21 |
| O=C(NCCCNC(=O)c1cnccn1)c1cccc(Cl)c1 | -5.72 |
| N#C/C(=C\c1ccco1)C(=O)NCc1ccccc1 | 4.87 |
| CCn1c(SCC(=O)N/N=C/c2ccccc2OCC(=O)O)nnc1-c1ccccc1 | 5.58 |
| Cc1ccc(NC(=O)/C=C\C(=O)NCC(=O)O)cc1 | 0.434 |
| COc1ccc(-n2c(C)cc(/C=C3/SC(=S)N(C)C3=O)c2C)cc1 | 20.7 |
| CCCN1C2CCCC1CC(NC(=O)c1ccccc1)C2 (centres unmarked) | -18.9 |

###

Biological target: human ether-à-go-go-related gene (hERG) potassium channel (human, UniProt Q12809);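 further: peak tail current of the secondary pulse compared with the same well before compound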
Assay: primary screen, population patch clamp on CHO cells stably expressing hERG; higher = less effect of the substance
Among all 310,000 compounds or so, about 14,000 (4.5%) showed an effect of 50% or more. The effect is printed as a negative number. Only a selection was taken, and strong results are over-represented in it overall.
MEASUREMENT_LABEL: hERG current change (%, negative = inhibition) at 10uM (%)

| COMPOUND | UNIT_INFO | NUMERIC_VALUE |
| --- | --- | --- |
| Cc1nc2sc(C(c3ccc(Cl)cc3)N3CCN(C(=O)c4ccco4)CC3)c(O)n2n1 (centres unmarked) | % | -60.1 |
| CCOc1ccc(C(c2nnnn2C(C)(C)C)N2CCN(C(=O)c3ccco3)CC2)cc1 (centres unmarked) | % | -69.3 |
| CCC(C)(C)n1nnnc1C(c1ccccc1OC)N1CCN(C(=O)c2ccco2)CC1 (centres unmarked) | % | -32.6 |
| COc1ccc(Cl)cc1NC(=O)CCN1CCN(Cc2ccccc2)CC1 | % | -64.6 |
| O=C(NC1CCCCCC1)c1ccc2nc3cc(Cl)ccc3c(=O)n2c1 | % | 7.94 |
| Cc1ccc2nc3nc(NCC4CCCO4)c(C(=O)NC4CCCCC4)cc3c(=O)n2c1 (centres unmarked) | % | -78.1 |
| C/C(=N\NC(=O)CCC(=O)O)c1c(-c2ccccc2)c2cc(Br)ccc2[nH]c1=O | % | 6.72 |
| COc1ccc(Cl)cc1NC(=O)CN1CCN(Cc2ccccc2)CC1 | % | -68.9 |
| CCC(C)(C)n1nnnc1C(c1ccc(OC)cc1)N1CCN(C(=O)c2ccco2)CC1 (centres unmarked) | % | -41.6 |
| O=C(Nc1ccccc1)c1nnn(Cc2ccccc2)c1NC(=O)C(F)(F)F | % | -7.45 |
| COc1ccccc1C(c1nnnn1C(C)C)N1CCN(C(=O)c2ccco2)CC1 (centres unmarked) | % | 1.24 |
| COc1ccc(Cl)cc1NC(=O)CCN1CCN(c2ccccc2C)CC1 | % | 6.79 |
| COc1ccc(OC)c(NC(=O)CCN2CCN(Cc3ccccc3)CC2)c1.Cl | % | -32.9 |
| Cc1ccc(C(c2sc3nc(C)nn3c2O)N2CCN(C(=O)c3ccco3)CC2)cc1 (centres unmarked) | % | -31.4 |

###

Target: human ether-à-go-go-related gene (hERG) potassium channel (human);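 further: peak tail current of the secondary pulse compared with the same well before compound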
Experiment: primary screen, population patch clamp on CHO cells stably expressing hERG; higher = less effect of the substance
In all, about 310,000 compounds went through this assay and about 14,000 (4.5%) showed an effect of 50% or more. The effect is printed as a negative number. Shown is part of a subset that was picked to be rich in strong results.
Parameter hERG current change (%, negative = inhibition) at 10uM: see the listing below.
MEASUREMENT_LABEL: hERG current change (%, negative = inhibition) at 10uM (%)

| COMPOUND | SYSTEM_NAME | NUMERIC_VALUE |
| --- | --- | --- |
| Cn1c(CNC(=O)c2cccs2)n[nH]c1=S | human ether-à-go-go-related gene (hERG) potassium channel (human) | 18.1 |
| CCN1CCN(CCC(=O)Nc2ccc(F)c(F)c2)CC1 | human ether-à-go-go-related gene (hERG) potassium channel (human) | -17.1 |
| COc1cc(NC(=O)CN2CCCCCC2)cc(OC)c1 | human ether-à-go-go-related gene (hERG) potassium channel (human) | 5.28 |
| CCc1sc(C(=O)N2CCN(CC(=O)Nc3cccc(F)c3)CC2)cc1C | human ether-à-go-go-related gene (hERG) potassium channel (human) | -65 |
| CCc1sc(C(=O)N2CCN(c3ccc(F)cc3)CC2)cc1C | human ether-à-go-go-related gene (hERG) potassium channel (human) | -16.3 |
| COCCCNC(=O)CCCCCNS(=O)(=O)c1ccc(Br)cc1 | human ether-à-go-go-related gene (hERG) potassium channel (human) | -21.4 |
| Cc1ccc2nc(C(O)C(O)c3nc4ccc(C)cc4[nH]3)[nH]c2c1 (centres unmarked) | human ether-à-go-go-related gene (hERG) potassium channel (human) | -6.37 |
| O=S(=O)(Nc1ccc2c(c1)OCCO2)c1cccc2nsnc12 | human ether-à-go-go-related gene (hERG) potassium channel (human) | -11.2 |
| Cc1ccc2[nH]c(SCC(=O)N3CCOCC3)nc2c1C | human ether-à-go-go-related gene (hERG) potassium channel (human) | 8.6 |
| NC(=S)N=Nc1c(O)n(CCCl)c2ccc(Br)cc12 | human ether-à-go-go-related gene (hERG) potassium channel (human) | -27.4 |
| O=C(Cn1cnc2sc(-c3ccccc3)cc2c1=O)NCc1ccco1 | human ether-à-go-go-related gene (hERG) potassium channel (human) | -3.75 |
